# SYSTEM UNDER TEST: Cannabinoid receptor 2 (Homo sapiens)
# Sequence (P34972 whole entry): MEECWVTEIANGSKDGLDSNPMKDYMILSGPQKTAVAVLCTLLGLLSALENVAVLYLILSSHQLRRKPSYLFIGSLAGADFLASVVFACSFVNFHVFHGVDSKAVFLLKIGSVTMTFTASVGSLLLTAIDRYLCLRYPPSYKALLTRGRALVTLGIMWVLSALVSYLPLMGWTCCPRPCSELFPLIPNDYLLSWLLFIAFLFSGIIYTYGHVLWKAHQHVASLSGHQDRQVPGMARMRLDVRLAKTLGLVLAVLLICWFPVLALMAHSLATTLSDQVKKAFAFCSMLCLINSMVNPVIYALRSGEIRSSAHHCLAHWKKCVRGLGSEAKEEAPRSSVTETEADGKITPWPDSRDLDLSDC
# TEST METHOD NOTES: Agonist activity at human CB2 receptor by GTPgamma[35S] assay
MEASURED ATTRIBUTE: EC50 (nM)
Your answer should be a plain number; it is taken to be in nM.

INSERT INTO results (molecule, system_under_test, measured_attribute, result_unit, result_number) VALUES
  ('CCCCCc1cc(O)c2c(c1)CC(C)(C)[C@@H]1CCC(C)=C[C@@H]21', 'Cannabinoid receptor 2 (Homo sapiens)', 'EC50', 'nM', 13.5);

## Input Consider the molecule CC1CCN(C(=O)c2ccc3c(c2)c2c(n3S(=O)(=O)C3CC3)CN(C3CCCC3)C2)CC1 tested on Cannabinoid receptor 2 (Homo sapiens); state its EC50.
## Output 1.5

## Input Consider the molecule C=CCN1Cc2c(n(S(=O)(=O)CC)c3ccc(C(=O)N4CCC(C)CC4)cc23)C1 tested on Cannabinoid receptor 2 (Homo sapiens); state its EC50.
## Output 0.3

## Input Consider the molecule CC1CCN(C(=O)c2ccc3c(c2)c2c(n3S(=O)(=O)C(C)C)CN(C3CCCC3)C2)CC1 tested on Cannabinoid receptor 2 (Homo sapiens); state its EC50.
## Output 0.5

## Input Consider the molecule CCS(=O)(=O)n1c2c(c3cc(C(=O)N4CCC(C)CC4)ccc31)CN(CC1CC1)C2 tested on Cannabinoid receptor 2 (Homo sapiens); state its EC50.
## Output 0.5

## Input Consider the molecule CCS(=O)(=O)n1c2c(c3cc(C(=O)N4CCC(C)CC4)ccc31)CN(C(C)C)C2 tested on Cannabinoid receptor 2 (Homo sapiens); state its EC50.
## Output 0.9

## Input Consider the molecule CC1CCN(C(=O)c2ccc3c(c2)c2c(n3S(C)(=O)=O)CN(C3CCCC3)C2)CC1 tested on Cannabinoid receptor 2 (Homo sapiens); state its EC50.
## Output 0.6

## Input Consider the molecule CCCCN1Cc2c(n(S(=O)(=O)CC)c3ccc(C(=O)N4CCC(C)CC4)cc23)C1 tested on Cannabinoid receptor 2 (Homo sapiens); state its EC50.
## Output 2.7

====

# SYSTEM UNDER TEST: Cannabinoid receptor 1 (Homo sapiens, UniProt P21554)
# Sequence (P21554 whole entry): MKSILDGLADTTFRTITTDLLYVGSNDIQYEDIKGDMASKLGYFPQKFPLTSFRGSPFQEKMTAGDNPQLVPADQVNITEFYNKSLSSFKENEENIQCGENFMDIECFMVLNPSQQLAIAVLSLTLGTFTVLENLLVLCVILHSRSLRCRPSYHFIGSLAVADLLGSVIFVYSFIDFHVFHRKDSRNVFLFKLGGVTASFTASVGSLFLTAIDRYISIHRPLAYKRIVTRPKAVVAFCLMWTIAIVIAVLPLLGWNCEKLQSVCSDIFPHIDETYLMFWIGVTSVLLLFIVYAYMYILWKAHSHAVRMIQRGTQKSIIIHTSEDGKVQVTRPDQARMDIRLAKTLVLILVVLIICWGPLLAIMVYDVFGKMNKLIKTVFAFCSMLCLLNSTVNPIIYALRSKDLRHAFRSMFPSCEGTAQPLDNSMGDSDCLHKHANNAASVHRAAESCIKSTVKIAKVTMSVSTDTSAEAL
Each item that follows carries a reported pKi.
Reminder that pKi means the negative base-10 logarithm of the concentration expressed in mol/L.

For orientation, consider the following solved cases.
INSERT INTO assay_data (molecule, result_number) VALUES
  ('CCCCCc1cc(O)c2c(c1)CC(C)(C)[C@@H]1CCC(C)=C[C@@H]21', 7.70),
  ('CCS(=O)(=O)n1c2c(c3cc(C(=O)N4CCC(C)CC4)ccc31)CN(Cc1ccccc1)C2', 5.90),
  ('CC1CCN(C(=O)c2ccc3c(c2)c2c(n3S(C)(=O)=O)CN(C3CCCC3)C2)CC1', 6.55),
  ('CCS(=O)(=O)n1c2c(c3cc(C(=O)N4CCC(C)CC4)ccc31)CN(C1CCCC1)C2', 7.18),
  ('CCS(=O)(=O)n1c2c(c3cc(C(=O)N4CCC(C)CC4)ccc31)CN(CC1CCCCC1)C2', 6.47),
  ('C=CCn1c2c(c3cc(C(=O)N4CCC(C)CC4)ccc31)CN(C1CCCC1)C2', 6.16),
  ('CC1CCN(C(=O)c2ccc3c(c2)c2c(n3S(=O)(=O)C(C)C)CN(C3CCCC3)C2)CC1', 6.82),
  ('CC1CCN(C(=O)c2ccc3c(c2)c2c(n3C)CN(C3CCCC3)C2)CC1', 5.74),
  ('CCS(=O)(=O)n1c2c(c3cc(C(=O)N4CCC(C)CC4)ccc31)CN(CCC1CCCCC1)C2', 5.56),
  ('CCS(=O)(=O)n1c2c(c3cc(C(=O)N(C)CCC(C)C)ccc31)CN(C1CCCC1)C2', 5.83);

## Input Identify measured pKi associated with CCCS(=O)(=O)n1c2c(c3cc(C(=O)N4CCC(C)CC4)ccc31)CN(C1CCCC1)C2
## Output 6.71
